Documented MIC (μg/mL) MSSA across a set of compounds
tested on: Methicillin-Sensitive S. aureus (Newman); type: cell-based, Staphylococcus aureus; settings: Newman
Numbered stars: 1 amine (or outer) side, 2 acyl side, 3 side chain; on linkers, the order of the positions; unused ones are H or OH. Square brackets hold non-standard residues; d marks the D form. Peptide text beside a SMILES is read from it. X1 = O=C([C@@H]1C[C@@]2(O)c3ccccc3N[C@H]2N1[*:1])[*:2]; dPiz(5R-OH) = O=C(O)[C@H]1C[C@@H](O)CNN1; NMeV = CN[C@H](C(=O)O)C(C)C; Hiv = CC(C)[C@H](O)C(=O)O

Guide cases for MIC (μg/mL) MSSA, answers given:
Q. For the compound shown here, CC(C)C[C@@H]1NC(=O)[C@H]2C[C@@H](O)CNN2C(=O)[C@H](C(C)C)N(C)C(=O)[C@@H](C(C)C)NC(=O)[C@@H]2C[C@@]3(O)c4ccccc4N[C@H]3N2C(=O)[C@@H]([C@H](C)O)NC1=O [(+)-27, N-Methyl Cyclic Hexapeptide] (cyclo(L[dT][X1][dV][NMeV][dPiz(5R-OH)])) , give the reported MIC (μg/mL) MSSA.
A. >64 µg/mL

Q. Which value of MIC (μg/mL) MSSA has been reported for CC(C)C[C@@H]1NC(=O)[C@H]2CCCN2C(=O)[C@H](C(C)C)OC(=O)[C@@H](C(C)C)NC(=O)[C@@H]2C[C@@]3(O)c4cc(-c5ccc6c(c5)[C@]5(O)C[C@H]7C(=O)N[C@H](C(C)C)C(=O)O[C@@H](C(C)C)C(=O)N8CCC[C@@H]8C(=O)N[C@@H](CC(C)C)C(=O)N[C@H]([C@H](C)O)C(=O)N7[C@@H]5N6)ccc4N[C@H]3N2C(=O)[C@@H]([C@H](C)O)NC1=O [(−)-30, Himastatin Proline Derivative] in the records?
A. >64 µg/mL

New cases:
Q. Name the reported MIC (μg/mL) MSSA value associated with the compound CC(C)C[C@@H]1NC(=O)[C@H]2CCCN2C(=O)[C@H](C(C)C)OC(=O)[C@@H](C(C)C)NC(=O)[C@@H]2C[C@@]3(O)c4ccccc4N[C@H]3N2C(=O)[C@@H]([C@H](C)O)NC1=O [(+)-29, Proline Cyclic Depsihexapeptide] (cyclo([Hiv][dP]L[dT][X1][dV]))
A. >64 µg/mL
